Reported protein stability index by item:
B1: PTPN9 (parent)
chain: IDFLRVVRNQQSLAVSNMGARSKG

# Variants of: B1
# PROTOCOL SUMMARY: protein stability index of a GFP-peptide fusion (GPS, HEK-293T) (PSI 1-6); higher = more stable;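 also: lentivirally expressed fusions sorted by FACS into six bins by GFP to DsRed ratio, PSI derived from sequencing read proportions per bin multiplied by bin number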
# TEST PARAMETERS: c terminus: a fixed tail appended

Examples from the recorded data:
# CHANGE, OBSERVED PROPERTY, ASSAY RESULT
measured = [
    ("G24E", "protein stability index", 2.95),
    ("V15I", "protein stability index", 1.97),
    ("S16A", "protein stability index", 3.26),
    ("R21P", "protein stability index", 2.15),
    ("L13T", "protein stability index", 2.57),
]

The reported value for "R5A" in terms of protein stability index is 2.06

The reported value for "D2H" in terms of protein stability index is 2.41

The reported value for "V7H" in terms of protein stability index is 3.26

The reported value for "A14G" in terms of protein stability index is 2.3

The reported value for "R8L" in terms of protein stability index is 2.04

The reported value for "V6C" in terms of protein stability index is 2.42
